Each entry below lists one item and its recorded IC50 value.
- study_system: intracellular phosphorylation of EGFR (Tyr1068) in PC-9 cells (Homo sapiens, UniProt P00533, DEL746-750)
- Sequence (P00533 with tags, fused parts or gaps DEL746-750): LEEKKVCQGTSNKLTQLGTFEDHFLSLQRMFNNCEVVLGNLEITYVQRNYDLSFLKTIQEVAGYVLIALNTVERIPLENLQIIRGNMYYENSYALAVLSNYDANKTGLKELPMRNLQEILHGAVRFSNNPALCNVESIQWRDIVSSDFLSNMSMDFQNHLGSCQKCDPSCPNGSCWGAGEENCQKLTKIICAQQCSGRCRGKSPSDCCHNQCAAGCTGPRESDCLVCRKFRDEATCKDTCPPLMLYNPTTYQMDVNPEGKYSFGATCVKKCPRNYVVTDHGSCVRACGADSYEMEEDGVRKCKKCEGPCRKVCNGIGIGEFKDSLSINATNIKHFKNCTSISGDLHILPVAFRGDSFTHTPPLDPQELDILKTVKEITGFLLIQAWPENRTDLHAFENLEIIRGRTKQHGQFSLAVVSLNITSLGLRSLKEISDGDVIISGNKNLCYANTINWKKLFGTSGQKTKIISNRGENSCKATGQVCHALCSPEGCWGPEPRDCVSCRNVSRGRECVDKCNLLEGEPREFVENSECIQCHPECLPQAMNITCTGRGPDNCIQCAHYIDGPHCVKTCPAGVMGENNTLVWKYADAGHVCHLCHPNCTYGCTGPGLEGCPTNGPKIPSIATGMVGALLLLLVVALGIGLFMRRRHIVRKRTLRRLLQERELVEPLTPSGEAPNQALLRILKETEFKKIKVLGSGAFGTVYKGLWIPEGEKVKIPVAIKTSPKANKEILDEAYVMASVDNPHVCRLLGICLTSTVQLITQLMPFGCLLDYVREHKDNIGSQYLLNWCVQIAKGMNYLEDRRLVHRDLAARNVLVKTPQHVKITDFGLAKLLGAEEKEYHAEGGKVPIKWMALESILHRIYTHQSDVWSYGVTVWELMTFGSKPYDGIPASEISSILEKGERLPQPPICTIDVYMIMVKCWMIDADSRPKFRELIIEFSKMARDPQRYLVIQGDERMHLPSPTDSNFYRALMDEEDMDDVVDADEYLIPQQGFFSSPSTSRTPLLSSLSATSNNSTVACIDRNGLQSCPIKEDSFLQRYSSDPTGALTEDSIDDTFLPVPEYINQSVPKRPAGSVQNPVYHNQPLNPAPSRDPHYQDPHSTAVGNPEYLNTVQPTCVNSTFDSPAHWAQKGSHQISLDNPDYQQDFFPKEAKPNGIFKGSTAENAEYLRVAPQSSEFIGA
- experimental_protocol: PC-9 pEGFR AlphaLISA assay
- test_context: 4 hours incubation, read-out: Phos EGFR PC9 IC50

molecule	readout_label	observed_result
COc1cn(C)nc1-c1cc(OC2CCN(C)CC2)c2c(Nc3ccc4ncsc4c3)ncnc2c1 [Example 314]	IC50	≤ 10 nM
COc1nn(C)cc1-c1cc(O[C@H]2CCN(C)C2=O)c2c(Nc3ccc4ncsc4c3)ncnc2c1 (single isomer, unassigned) [Example 74]	IC50	10.1 to 50 nM
CN1CCC[C@H](Oc2cc(C#CCN3CCOCC3)cc3ncnc(Nc4ccc5ncsc5c4)c23)C1	IC50	10.1 to 50 nM
COc1cn(C)nc1-c1cc(O[C@H]2CCCN(C)C2)c2c(Nc3ccc4ncsc4c3)ncnc2c1	IC50	10.1 to 50 nM
CC(C)N1CC[C@@H](Oc2cc(-c3cnn(C)c3)cc3ncnc(Nc4ccc5ncsc5c4)c23)C1=O (single isomer, unassigned) [Example 63]	IC50	≤ 10 nM
C[C@@H](Oc1cc(N2CC3CC(C2)O3)cc2ncnc(Nc3ccc4ncsc4c3F)c12)C1COC1	IC50	≤ 10 nM
C[C@H]1CN(C)CCN1C(=O)Nc1cc2c(Nc3ccc4ncsc4c3)ncnc2cc1-c1ccn(C)n1	IC50	≤ 10 nM
C[C@@H](Oc1cc(-c2cnn(C)c2)cc2ncnc(Nc3ccc4ncsc4c3)c12)C(F)(F)F	IC50	10.1 to 50 nM
CCN1CCN(C(=O)Nc2cc3c(Nc4ccc5ncsc5c4F)ncnc3cc2-c2ccn(C)n2)[C@@H](C)C1	IC50	≤ 10 nM
CN1CCC(Oc2cc(-c3ccc(S(C)(=O)=O)cc3)cc3ncnc(Nc4ccc5ncsc5c4)c23)CC1	IC50	10.1 to 50 nM

Ask | Need IC50, item `Cn1cc(-c2cc(O[C@H]3CNC[C@@H]3F)c3c(Nc4ccc5ncsc5c4)ncnc3c2)cn1`
Reply | > 50.1 nM

Ask | Check C[C@@H](Oc1c(F)c(-c2cnn(C)c2)cc2ncnc(Nc3ccc4ncsc4c3F)c12)C1COC1 (single isomer, unassigned) [Example A28] too.
Reply | > 50.1 nM

Ask | Check `COCCN1CCN(c2cc(O[C@H](C)COC)c3c(Nc4ccc5ncsc5c4)ncnc3c2)CC1` too.
Reply | 10.1 to 50 nM

Ask | Check CN1CC[C@H](Oc2cc(-c3cnn(C)c3)cc3ncnc(Nc4ccc5ncsc5c4)c23)[C@@H](O)C1 (single isomer, unassigned) [Example A36] too.
Reply | 10.1 to 50 nM

Ask | Check COc1nn(C)cc1-c1cc(O[C@H]2COC[C@@H]2O)c2c(Nc3ccc4ncsc4c3)ncnc2c1 (single isomer, unassigned) [Example A48] too.
Reply | ≤ 10 nM

Ask | Check `CN1CC[C@@H](Oc2cc(-c3cnn(C)c3)cc3ncnc(Nc4ccc5ncsc5c4F)c23)[C@H](F)C1` too.
Reply | ≤ 10 nM

Ask | Check `Cn1cc(-c2cc(OCC(=O)N3CCOCC3)c3c(Nc4ccc5ncsc5c4)ncnc3c2)cn1` too.
Reply | ≤ 10 nM

Ask | Check CCN1CC[C@H](Oc2cc(-c3cnn(C)c3)cc3ncnc(Nc4ccc5ncsc5c4)c23)C1=O (single isomer, unassigned) [Example 59] too.
Reply | ≤ 10 nM

Ask | Check Cn1cc(-c2cc(O[C@H]3COC[C@@H]3O)c3c(Nc4ccc5ncsc5c4)ncnc3c2)cn1 (single isomer, unassigned) [Example A30] too.
Reply | > 50.1 nM

Ask | Check `Cn1cc(-c2cc(OC3CCN(C4COC4)CC3)c3c(Nc4ccc5ncsc5c4)ncnc3c2)cn1` too.
Reply | ≤ 10 nM

Ask | Check `COc1cc2c(Nc3ccc4ncsc4c3F)ncnc2cc1-c1cn(C)nc1OC` too.
Reply | 10.1 to 50 nM

Ask | Check `Cn1cc(-c2cc(OC3CCN(C4CCOCC4)CC3)c3c(Nc4ccc5ncsc5c4)ncnc3c2)cn1` too.
Reply | 10.1 to 50 nM

Ask | Check `C[C@@H](Oc1cc(-c2cnn(C)c2)cc2ncnc(Nc3ccc4ncsc4c3)c12)C1COC1` too.
Reply | ≤ 10 nM

Ask | Check Cc1cn(-c2cc(OC(C)CN(C)C)c3c(Nc4ccc5ncsc5c4)ncnc3c2)c(=O)n1C (stereo not shown) too.
Reply | 10.1 to 50 nM

Ask | Check CN1CC[C@H](Oc2cc(-c3cnn(C)c3)cc3ncnc(Nc4ccc5ncsc5c4)c23)[C@@H](F)C1 (single isomer, unassigned) [Example 344] too.
Reply | ≤ 10 nM

Ask | Check C[C@@H](Oc1cc(-c2cn(C)n(C(F)F)c2=O)cc2ncnc(Nc3ccc4ncsc4c3)c12)C1COC1 (single isomer, unassigned) [Example 175] too.
Reply | 10.1 to 50 nM

Ask | Check COC[C@@H](C)Oc1cc(-n2cc([C@@H](C)O)cn2)cc2ncnc(Nc3ccc4ncsc4c3F)c12 (single isomer, unassigned) too.
Reply | ≤ 10 nM

Ask | Check CC[C@@H](Oc1cc(-c2cnn(C)c2)cc2ncnc(Nc3ccc4ncsc4c3F)c12)C1COC1 (single isomer, unassigned) too.
Reply | ≤ 10 nM
